These entries and their values trace back to paper PMC8035258.

test-system: Mitochondrial respiratory complex II (Mus musculus, UniProt Q8K2B3+Q9CQA3+Q9CXV1+Q9CZB0)
Sequence (Q8K2B3 43-664): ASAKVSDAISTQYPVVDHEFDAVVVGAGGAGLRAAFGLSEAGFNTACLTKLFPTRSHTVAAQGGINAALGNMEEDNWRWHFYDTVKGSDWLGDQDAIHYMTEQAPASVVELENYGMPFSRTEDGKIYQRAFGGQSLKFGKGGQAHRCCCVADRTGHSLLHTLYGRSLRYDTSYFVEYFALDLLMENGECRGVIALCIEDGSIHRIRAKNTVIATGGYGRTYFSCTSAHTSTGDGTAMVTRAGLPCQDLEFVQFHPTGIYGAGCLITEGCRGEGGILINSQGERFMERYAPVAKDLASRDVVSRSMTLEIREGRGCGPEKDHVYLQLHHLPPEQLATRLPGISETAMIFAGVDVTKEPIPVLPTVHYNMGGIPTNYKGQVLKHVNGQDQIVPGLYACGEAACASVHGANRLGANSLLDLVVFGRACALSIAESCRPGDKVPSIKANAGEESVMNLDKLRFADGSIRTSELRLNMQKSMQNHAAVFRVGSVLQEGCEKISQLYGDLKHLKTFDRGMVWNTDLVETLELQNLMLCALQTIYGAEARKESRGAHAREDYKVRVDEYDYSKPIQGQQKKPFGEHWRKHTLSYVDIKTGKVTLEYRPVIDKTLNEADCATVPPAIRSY
Sequence (Q9CQA3 31-282): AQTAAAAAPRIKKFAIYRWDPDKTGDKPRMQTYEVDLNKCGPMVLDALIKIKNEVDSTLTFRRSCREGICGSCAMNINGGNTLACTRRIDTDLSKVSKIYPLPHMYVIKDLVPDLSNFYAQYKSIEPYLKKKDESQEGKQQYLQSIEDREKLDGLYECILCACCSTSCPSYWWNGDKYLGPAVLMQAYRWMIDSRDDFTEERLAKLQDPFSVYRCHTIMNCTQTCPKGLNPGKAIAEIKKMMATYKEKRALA
Sequence (Q9CZB0 30-169): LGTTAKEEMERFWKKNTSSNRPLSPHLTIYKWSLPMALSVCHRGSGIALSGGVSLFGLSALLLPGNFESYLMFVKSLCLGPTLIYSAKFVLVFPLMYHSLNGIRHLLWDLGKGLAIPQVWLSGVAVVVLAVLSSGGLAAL
Sequence (Q9CXV1 57-159): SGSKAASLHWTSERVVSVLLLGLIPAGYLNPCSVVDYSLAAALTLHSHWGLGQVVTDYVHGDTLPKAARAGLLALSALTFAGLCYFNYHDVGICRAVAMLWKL
measurement-description: Complex II inhibition assay
Assay type: biochemical
experimental-parameters: read-out: % Inhibition CII (100 μM), 100 μM; mouse liver mitochondria; mean ±SD of n = 4
result-type: inhibition at 100 µM (%)

compound | test-system | recorded-result
O=S1(=O)NC(=S)Nc2cc(Cl)ccc21 [Compound 12b] | Mitochondrial respiratory complex II (Mus musculus, UniProt Q8K2B3+Q9CQA3+Q9CXV1+Q9CZB0) | 81
CC(C)C(C)NC1=NS(=O)(=O)c2cc(Br)ccc2N1 (stereo not shown) [Compound 15c] | Mitochondrial respiratory complex II (Mus musculus, UniProt Q8K2B3+Q9CQA3+Q9CXV1+Q9CZB0) | 19
CC(NC1=NS(=O)(=O)c2ccccc2N1)c1ccccc1 (stereo not shown) [Compound 24d] | Mitochondrial respiratory complex II (Mus musculus, UniProt Q8K2B3+Q9CQA3+Q9CXV1+Q9CZB0) | 0
O=S1(=O)N=C(NCc2ccc(OC(F)(F)F)cc2)Nc2ccc(Br)cc21 [Compound 30c] | Mitochondrial respiratory complex II (Mus musculus, UniProt Q8K2B3+Q9CQA3+Q9CXV1+Q9CZB0) | 21
O=C1Nc2ccc(Br)cc2S(=O)(=O)N1 [Compound 11c] | Mitochondrial respiratory complex II (Mus musculus, UniProt Q8K2B3+Q9CQA3+Q9CXV1+Q9CZB0) | 0
O=S1(=O)N=C(NCCc2ccccc2)Nc2ccc(F)cc21 [Compound 18a] | Mitochondrial respiratory complex II (Mus musculus, UniProt Q8K2B3+Q9CQA3+Q9CXV1+Q9CZB0) | 4
Nc1ccc(CNC2=NS(=O)(=O)c3cc(Br)ccc3N2)cc1 [Compound 31c] | Mitochondrial respiratory complex II (Mus musculus, UniProt Q8K2B3+Q9CQA3+Q9CXV1+Q9CZB0) | 9
CC(NC1=NS(=O)(=O)c2cc(F)ccc2N1)c1ccccc1 (stereo not shown) [Compound 24a] | Mitochondrial respiratory complex II (Mus musculus, UniProt Q8K2B3+Q9CQA3+Q9CXV1+Q9CZB0) | 22
CC(C)NC1=NS(=O)(=O)c2cc(Br)ccc2N1 [Compound 14c] | Mitochondrial respiratory complex II (Mus musculus, UniProt Q8K2B3+Q9CQA3+Q9CXV1+Q9CZB0) | 0
CC(C)C(C)NC1=NS(=O)(=O)c2cc(F)ccc2N1 (stereo not shown) [Compound 15a] | Mitochondrial respiratory complex II (Mus musculus, UniProt Q8K2B3+Q9CQA3+Q9CXV1+Q9CZB0) | 5
O=S1(=O)N=C(NCc2ccccc2)Nc2ccc(F)cc21 [Compound 21a] | Mitochondrial respiratory complex II (Mus musculus, UniProt Q8K2B3+Q9CQA3+Q9CXV1+Q9CZB0) | 0
Cc1ccc(CNC2=NS(=O)(=O)c3cc(F)ccc3N2)cc1 [Compound 27a] | Mitochondrial respiratory complex II (Mus musculus, UniProt Q8K2B3+Q9CQA3+Q9CXV1+Q9CZB0) | 23
CC(C)NC1=NS(=O)(=O)c2ccc(Cl)cc2N1 [Compound 14b] | Mitochondrial respiratory complex II (Mus musculus, UniProt Q8K2B3+Q9CQA3+Q9CXV1+Q9CZB0) | 0

* * *

test-system: Mitochondrial respiratory complex II (Mus musculus, UniProt Q8K2B3+Q9CQA3+Q9CXV1+Q9CZB0)
measurement-description: Complex II inhibition assay
Assay type: biochemical
experimental-parameters: read-out: % Inhibition CII (100 μM), 100 μM; mouse liver mitochondria; mean ±SD of n = 4

molecule | inhibition at 100 µM
C=CCNC1=NS(=O)(=O)c2cc(F)ccc2N1 [Compound 32a] | 38%
O=S1(=O)N=C(NCc2ccc(F)cc2)Nc2ccc(Br)cc21 [Compound 17c] | 35%
O=S1(=O)N=C(NCc2ccc(F)cc2)Nc2ccccc21 [Compound 17d] | 7%
CSC1=NS(=O)(=O)c2ccc(Cl)cc2N1 [Compound 13b] | 24%
O=S1(=O)N=C(NCCc2ccc(F)cc2)Nc2ccc(Br)cc21 [Compound 33c] | 45%
O=S1(=O)N=C(NCCCc2ccccc2)Nc2ccc(Br)cc21 [Compound 23c] | 47%
O=S1(=O)N=C(NCCc2ccc(Cl)cc2)Nc2ccc(F)cc21 [Compound 37a] | 34%
CC1=Nc2ccc(Cl)cc2S(=O)(=O)N1 [Diazoxide, reference compound] | 9%
O=S1(=O)N=C(NCc2ccccc2C(F)(F)F)Nc2ccc(Br)cc21 [Compound 35c] | 29%
CSC1=NS(=O)(=O)c2cc(F)ccc2N1 [Compound 13a] | 0%
